Protocol details: in vivo
Stated conditions: both, SD, rat, iv, 3 mg/kg
Residues, ends and D or L forms follow the SMILES beside them.

{"Compound": "CC(=O)N[C@H](C(=O)N[C@@H](CO)C(=O)N[C@@H](CCCNC(=N)N)C(=O)N[C@@H](CCCNC(=N)N)C(=O)N[C@@H](CCCNC(=N)N)C(N)=O)C(C)C [CN-105, Ac-VSRRR-NH2] (Ac-VSRRR-NH2)", "Cmax [ng/mL]": 17000}

----------
Protocol details: in vivo
Stated conditions: both, SD, rat, iv, 0.1 mg/kg
Residues, ends and D or L forms follow the SMILES beside them.

{"Molecule": "CC(=O)N[C@H](C(=O)N[C@@H](CO)C(=O)N[C@@H](CCCNC(=N)N)C(=O)N[C@@H](CCCNC(=N)N)C(=O)N[C@@H](CCCNC(=N)N)C(N)=O)C(C)C [CN-105, Ac-VSRRR-NH2] (Ac-VSRRR-NH2)", "half-life (min)": 20.2}

----------
Protocol details: in vivo
Stated conditions: both, SD, rat, iv, 3 mg/kg
Residues, ends and D or L forms follow the SMILES beside them.
Observation type: Tmax

{"Molecule": "CC(=O)N[C@H](C(=O)N[C@@H](CO)C(=O)N[C@@H](CCCNC(=N)N)C(=O)N[C@@H](CCCNC(=N)N)C(=O)N[C@@H](CCCNC(=N)N)C(N)=O)C(C)C [CN-105, Ac-VSRRR-NH2] (Ac-VSRRR-NH2)", "Observation type": "Tmax", "Recorded measurement": "2 min"}

----------
Protocol details: in vivo
Stated conditions: both, monkey, iv, 0.1 mg/kg
Residues, ends and D or L forms follow the SMILES beside them.
Observation type: AUC(0-t) (ng·h/mL)

{"Compound": "CC(=O)N[C@H](C(=O)N[C@@H](CO)C(=O)N[C@@H](CCCNC(=N)N)C(=O)N[C@@H](CCCNC(=N)N)C(=O)N[C@@H](CCCNC(=N)N)C(N)=O)C(C)C [CN-105, Ac-VSRRR-NH2] (Ac-VSRRR-NH2)", "Display unit": "ng·h/mL", "Recorded measurement": 348}

----------
Protocol details: in vivo
Stated conditions: both, SD, rat, iv, 1 mg/kg
Residues, ends and D or L forms follow the SMILES beside them.

{"Compound": "CC(=O)N[C@H](C(=O)N[C@@H](CO)C(=O)N[C@@H](CCCNC(=N)N)C(=O)N[C@@H](CCCNC(=N)N)C(=O)N[C@@H](CCCNC(=N)N)C(N)=O)C(C)C [CN-105, Ac-VSRRR-NH2] (Ac-VSRRR-NH2)", "half-life / min": 37.2}

----------
Protocol details: in vivo
Stated conditions: both, monkey, iv, 0.5 mg/kg
Residues, ends and D or L forms follow the SMILES beside them.
Observation type: Cmax

{"Compound": "CC(=O)N[C@H](C(=O)N[C@@H](CO)C(=O)N[C@@H](CCCNC(=N)N)C(=O)N[C@@H](CCCNC(=N)N)C(=O)N[C@@H](CCCNC(=N)N)C(N)=O)C(C)C [CN-105, Ac-VSRRR-NH2] (Ac-VSRRR-NH2)", "Observation type": "Cmax", "Recorded measurement": "1500 ng/mL"}

----------
Protocol details: in vivo
Stated conditions: both, SD, rat, iv, 3 mg/kg
Residues, ends and D or L forms follow the SMILES beside them.

{"Compound": "CC(=O)N[C@H](C(=O)N[C@@H](CO)C(=O)N[C@@H](CCCNC(=N)N)C(=O)N[C@@H](CCCNC(=N)N)C(=O)N[C@@H](CCCNC(=N)N)C(N)=O)C(C)C [CN-105, Ac-VSRRR-NH2] (Ac-VSRRR-NH2)", "C0 / ng/mL": 24000}
